system: Rhopr-SKR-2; experiment: Functional receptor assay (aequorin bioluminescence), Rhopr-SKR-2 transiently expressed in HEK293/CNG cells; assay type: cell-based, Rhodnius prolixus; conditions: HEK293/CNG, aequorin luminescence, coelenterazine h 5 μM, first 5-second interval, 3 replicates, read-out: EC50, luminescence response
property: EC50

The value of EC50 recorded for GGSDEKFDDY(SO3H)GYMRFamide [Rhopr-SK-2, native R. prolixus sulfakinin 2, custom synthesized] when tested on Rhopr-SKR-2 reads 0.101 nM
